target: Cyclin-dependent kinase 4/cyclin D1 (Homo sapiens, UniProt P11802); assay: Compound was evaluated for 50% inhibition of Cyclin-dependent kinase 4-cyclin D1; type: protein-complex assay
Sequence (P11802 whole entry): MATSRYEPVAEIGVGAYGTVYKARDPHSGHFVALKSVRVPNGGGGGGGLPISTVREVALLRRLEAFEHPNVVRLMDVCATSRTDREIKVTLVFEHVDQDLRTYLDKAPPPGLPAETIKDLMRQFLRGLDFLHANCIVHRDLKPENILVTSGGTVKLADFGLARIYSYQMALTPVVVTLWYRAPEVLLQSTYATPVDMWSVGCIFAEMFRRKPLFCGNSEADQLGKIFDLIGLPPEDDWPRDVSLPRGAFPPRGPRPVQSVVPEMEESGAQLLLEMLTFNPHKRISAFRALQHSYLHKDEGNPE
Sequence (P24385 whole entry, further chain): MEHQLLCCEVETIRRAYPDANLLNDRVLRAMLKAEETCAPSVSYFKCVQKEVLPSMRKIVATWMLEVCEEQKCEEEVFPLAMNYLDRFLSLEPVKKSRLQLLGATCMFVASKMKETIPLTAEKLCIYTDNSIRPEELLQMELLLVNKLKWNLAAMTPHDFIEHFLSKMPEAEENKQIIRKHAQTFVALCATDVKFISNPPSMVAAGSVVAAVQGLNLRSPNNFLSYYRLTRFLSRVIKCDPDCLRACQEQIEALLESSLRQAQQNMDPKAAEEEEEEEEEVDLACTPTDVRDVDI
quantity: IC50 (nM)

Worked examples, 4 compounds total:
Form entry - test system: Cyclin-dependent kinase 4/cyclin D1 (Homo sapiens, UniProt P11802); read-out: IC50; compound: CCCCNC(=O)Nc1cccc2c1C(=O)c1c(-c3ccc(OC)cc3)n[nH]c1-2
780

Form entry - test system: Cyclin-dependent kinase 4/cyclin D1 (Homo sapiens, UniProt P11802); read-out: IC50; compound: COc1ccc(-c2[nH]nc3c2C(=O)c2c(NC(=O)Nc4ccccc4)cccc2-3)cc1
877

Form entry - test system: Cyclin-dependent kinase 4/cyclin D1 (Homo sapiens, UniProt P11802); read-out: IC50; compound: COc1ccc(-c2[nH]nc3c2C(=O)c2c(NC(=O)CN4CCC(CO)CC4)cccc2-3)cc1
82

Form entry - test system: Cyclin-dependent kinase 4/cyclin D1 (Homo sapiens, UniProt P11802); read-out: IC50; compound: COc1ccc(-c2[nH]nc3c2C(=O)c2c(O)cccc2-3)cc1
20000

[P] COc1ccc(-c2[nH]nc3c2C(=O)c2c(NC(=O)NN4CCN(C)CC4)cccc2-3)cc1
[Q] COc1ccc(-c2[nH]nc3c2C(=O)c2c(NC(=O)CN4CCC(C(N)=O)CC4)cccc2-3)cc1
[R] COc1ccc(-c2[nH]nc3c2C(=O)c2c(NC(=O)CN4CCN(C(=N)N)CC4)cccc2-3)cc1
Output the entries ranked by IC50 from maximum down to minimum. Put the labels in the requested order and list them out.
Q, R, P
(Q: 76 nM, R: 26 nM, P: 9 nM)

[A] COc1ccc(-c2[nH]nc3c2C(=O)c2c(NC(=O)CN4CCN(C(N)=O)CC4)cccc2-3)cc1
[B] COc1ccc(-c2[nH]nc3c2C(=O)c2c(NC(=O)NN4CCCCC4)cccc2-3)cc1
I'm curious whether A or B has the smaller IC50 number. Which is it? Mark your answer with the label of the selected entry.
B

---

target: Cyclin-dependent kinase 2/cyclin E (Homo sapiens); experiment: Compound was evaluated for inhibition of Cyclin-dependent kinase 2-cyclin E; format: protein-complex assay
quantity: IC50 (nM)

Would you kindly share the measured IC50 for COc1ccc(-c2[nH]nc3c2C(=O)c2c(O)cccc2-3)cc1 ?
5200

[1] COc1ccc(-c2[nH]nc3c2C(=O)c2c(NC(=O)NN4CCOCC4)cccc2-3)cc1
[2] COc1ccc(-c2[nH]nc3c2C(=O)c2c(NC(=O)NCc4ccccc4)cccc2-3)cc1
I'm curious whether 1 or 2 has the smaller IC50 number. Which is it? Mark your answer with the label of the selected entry.
1
(1: 18 nM, 2: 95 nM)

---

biological target: Cyclin-dependent kinase 2/cyclin E (Homo sapiens); experiment: Compound was evaluated for inhibition of Cyclin-dependent kinase 2-cyclin E; format: protein-complex assay
quantity: IC50 (µM)

Worked examples, 4 compounds total:
Would you kindly share the measured IC50 for COc1ccc(-c2[nH]nc3c2C(=O)c2c(NC(=O)CN4CCC(C(N)=O)CC4)cccc2-3)cc1 ?
0.008

Would you kindly share the measured IC50 for COc1ccc(-c2[nH]nc3c2C(=O)c2c(NC(N)=O)cccc2-3)cc1 ?
0.007

Would you kindly share the measured IC50 for COc1ccc(-c2[nH]nc3c2C(=O)c2c(NC(=O)CN4CCN(C(=N)N)CC4)cccc2-3)cc1 ?
0.007

Would you kindly share the measured IC50 for COc1ccc(-c2[nH]nc3c2C(=O)c2c(NC(=O)CN4CCNCC4)cccc2-3)cc1 ?
0.033

[a] COc1ccc(-c2[nH]nc3c2C(=O)c2c(NC(=O)CN4CCN(C(N)=O)CC4)cccc2-3)cc1
[b] COc1ccc(-c2[nH]nc3c2C(=O)c2c(NC(=O)Nc4ccccc4)cccc2-3)cc1
[c] COc1ccc(-c2[nH]nc3c2C(=O)c2c(NC(=O)NN4CCCC4)cccc2-3)cc1
Please order the records by their reported IC50, lowest number first. Put the labels in the requested order and list them out.
a, c, b
(a: 0.008 µM, c: 0.015 µM, b: 0.032 µM)

---

target: Cyclin-dependent kinase 4/cyclin D1 (Homo sapiens); experiment: Inhibition of Cyclin-dependent kinase 4-cyclin D1; assay type: protein-complex assay
quantity: IC50 (nM)
Give just the numeric value; nM need not be written.

Would you kindly share the measured IC50 for COc1ccc(-c2[nH]nc3c2C(=O)c2c(NC(=O)NN(C)C)cccc2-3)cc1 ?
21

---

biological target: Cyclin-dependent kinase 2/cyclin E (Homo sapiens); assay: Compound was evaluated for inhibition of Cyclin-dependent kinase 2-cyclin E; format: protein-complex assay
quantity: IC50 (nM)

Worked examples, 3 compounds total:
Would you kindly share the measured IC50 for COc1ccc(-c2[nH]nc3c2C(=O)c2c(NC(=O)NCc4ccncc4)cccc2-3)cc1 ?
29

Would you kindly share the measured IC50 for COc1ccc(-c2[nH]nc3c2C(=O)c2c(NC(=O)CN4CCC(CN)CC4)cccc2-3)cc1 ?
12

Would you kindly share the measured IC50 for COc1ccc(-c2[nH]nc3c2C(=O)c2c(NC(=O)NN4CCN(C)CC4)cccc2-3)cc1 ?
12

[1] COc1ccc(-c2[nH]nc3c2C(=O)c2c(NC(=O)CN4CCC(CO)CC4)cccc2-3)cc1
[2] COc1ccc(-c2[nH]nc3c2C(=O)c2c(NC(=O)CN4CCSCC4)cccc2-3)cc1
[3] COc1ccc(-c2[nH]nc3c2C(=O)c2c(NC(=O)CN4CCOCC4)cccc2-3)cc1
[4] COc1ccc(-c2[nH]nc3c2C(=O)c2c(N)cccc2-3)cc1
Output the entries ranked by IC50 from maximum down to minimum. Put the labels in the requested order and list them out.
4, 2, 3, 1
(4: 8400 nM, 2: 54 nM, 3: 21 nM, 1: 11 nM)

---

biological target: Cyclin-dependent kinase 2/cyclin E (Homo sapiens, UniProt P24941); assay: Compound was evaluated for inhibition of Cyclin-dependent kinase 2-cyclin E; type: protein-complex assay
pIC50: −log10 of the molar value.
quantity: pIC50

Would you kindly share the measured pIC50 for CCNCC(=O)Nc1cccc2c1C(=O)c1c-2n[nH]c1-c1ccc(OC)cc1 ?
6.89

[a] COc1ccc(-c2[nH]nc3c2C(=O)c2c(NC(=O)CN4CCCCC4)cccc2-3)cc1
[b] COc1ccc(-c2[nH]nc3c2C(=O)c2ccncc2-3)cc1
[c] CCCCNC(=O)Nc1cccc2c1C(=O)c1c(-c3ccc(OC)cc3)n[nH]c1-2
[d] COc1ccc(-c2[nH]nc3c2C(=O)c2c(NC(=O)CN4CCN(C)CC4)cccc2-3)cc1
Output the entries ranked by pIC50 from maximum down to minimum. Put the labels in the requested order and list them out.
d, c, a, b
(d: 7.92, c: 7.08, a: 6.73, b: 5.33)

---

biological target: Cyclin-dependent kinase 4/cyclin D1 (Homo sapiens, UniProt P11802); assay: Compound was evaluated for 50% inhibition of Cyclin-dependent kinase 4-cyclin D1; assay type: protein-complex assay
pIC50: −log10 of the molar value.
quantity: pIC50

Worked examples, 3 compounds total:
Would you kindly share the measured pIC50 for COc1ccc(-c2[nH]nc3c2C(=O)c2c(NC(=O)NN4CCOCC4)cccc2-3)cc1 ?
7.92

Would you kindly share the measured pIC50 for COc1ccc(-c2[nH]nc3c2C(=O)c2c(NC(=O)CN4CCN(C)CC4)cccc2-3)cc1 ?
6.90

Would you kindly share the measured pIC50 for CCNCC(=O)Nc1cccc2c1C(=O)c1c-2n[nH]c1-c1ccc(OC)cc1 ?
6.04

[a] COc1ccc(-c2[nH]nc3c2C(=O)c2c(NC(=O)NCc4ccncc4)cccc2-3)cc1
[b] COc1ccc(-c2[nH]nc3c2C(=O)c2cc(Cl)c(Cl)cc2-3)cc1
Rank a against b by their pIC50 values and give the higher one. Mark your answer with the label of the selected entry.
a
(a: 5.94, b: 4.26)

[1] COc1ccc(-c2[nH]nc3c2C(=O)c2c(NC(=O)CN4CCC(CN)CC4)cccc2-3)cc1
[2] COc1ccc(-c2[nH]nc3c2C(=O)c2c(NC(=O)CN(C)C)cccc2-3)cc1
I'm curious whether 1 or 2 has the smaller pIC50 number. Which is it? Mark your answer with the label of the selected entry.
2

[A] COc1ccc(-c2[nH]nc3c2C(=O)c2c(NC(N)=O)cccc2-3)cc1
[B] COc1ccc(-c2[nH]nc3c2C(=O)c2ccncc2-3)cc1
[C] COc1ccc(-c2[nH]nc3c2C(=O)c2cc(O)ccc2-3)cc1
Output the entries ranked by pIC50 from maximum down to minimum. Put the labels in the requested order and list them out.
A, C, B

[A] COc1ccc(-c2[nH]nc3c2C(=O)c2c(N)cccc2-3)cc1
[B] COc1ccc(-c2[nH]nc3c2C(=O)c2c(NC(=O)NCc4ccccc4)cccc2-3)cc1
Rank A against B by their pIC50 values and give the higher one. Mark your answer with the label of the selected entry.
B
(B: 6.51, A: 4.64)
